Kindly supply the reported cytotoxicity at 70.5 h values for the records listed here.
assay: Human HepG2 cell viability assay in 384 well format; type: toxicity, cell-based; set-up: dose 125 nL, time 70.5 hour; concentration not given beside the values; conditions: HepG2 cells, read-out: Inhibition
Give bare numbers, in %.

Field: example entries. Status: answers known.
molecule: Cc1cnn(CC2CCCN2C(=O)c2c(C)noc2C(C)C)c1 (stereo unspecified)
experimental.readout: cytotoxicity at 70.5 h
scale.unit: %
measured: 11.7

molecule: O=C(NCCN1CCOCC1)NCc1ncc(-c2ccccc2)o1
experimental.readout: cytotoxicity at 70.5 h
scale.unit: %
measured: -11.5

molecule: CCC(=O)Nc1ccc(C(C)NC(=O)COC)cc1 (stereo unspecified)
experimental.readout: cytotoxicity at 70.5 h
scale.unit: %
measured: -9.08

molecule: CCC(C(=O)Nc1ccc2cn(CC)nc2c1)N1CCCC1=O (stereo unspecified)
experimental.readout: cytotoxicity at 70.5 h
scale.unit: %
measured: -24.8

Provide cytotoxicity at 70.5 h for all items below, preserving their order.
1. Cc1cc2nc(C(C)C)cc(NCc3ccncc3)n2n1
2. CC(C)CNC(=O)CNc1c(NCc2ccncc2)c(=O)c1=O
3. CC1c2cccn2CCN1C(=O)CCc1nc(-c2ccccc2)no1 (stereo unspecified)
4. O=C(CCCn1cncn1)N1CCCC1c1noc(C2CC2)n1 (stereo unspecified)
5. CN(C)C(=O)[C@@H]1CC[C@@H]2[C@@H](CCN2Cc2nccs2)O1

-7.5
4.58
-5.32
-3.05
-14.7

Provide cytotoxicity at 70.5 h for all items below, preserving their order.
1. N#Cc1ccc(C(=O)NCC2(N3CCOCC3)CCCC2)nc1
2. CC1CCc2n[nH]c(C(=O)NCCCc3ccccn3)c2C1 (stereo unspecified)
3. COc1c(CNC(C)c2sc(C)nc2C)c(C(C)C)nn1C (stereo unspecified)
4. CSC1=Nc2c(cnn2-c2ccc(C)cc2)C2=NCCCN12
5. O=C(c1ccc2c(c1)CCO2)N1CCN(c2ccc(Cl)cn2)CC1

-4.06
-7.91
23.8
-10.1
-0.811

====

assay: Human HepG2 cell viability assay in 384 well format; assay type: toxicity, cell-based; parameters: dose 125 nL, time 70.5 hour; concentration not given beside the values; settings: HepG2 cells, read-out: Inhibition
experimental.readout: cytotoxicity at 70.5 h (%)
Answers are plain numbers, in %.

Field: example entries. Status: answers known.
compound: Nc1nc(CCC(=O)N2C[C@@H](CN3CCCC3)C[C@H](CO)C2)n[nH]1
cytotoxicity at 70.5 h (%): -6.67
//
compound: c1cc(C2CCCN2Cc2nnnn2C2CC2)cs1 (stereo not drawn)
cytotoxicity at 70.5 h (%): -8.27
//
compound: O=C1CCC2(CCN(Cc3ccsc3)CC2)N1Cc1ccccc1
cytotoxicity at 70.5 h (%): -10.3
//
compound: CC(C)c1nnc2n1CCN(CC(=O)Nc1nncs1)C2
cytotoxicity at 70.5 h (%): -6.91
//
compound: Cc1csc(N2CCN(C(=O)CCCNc3ncccn3)CC2)n1
cytotoxicity at 70.5 h (%): -5.37

Provide cytotoxicity at 70.5 h for all items below, preserving their order.
1. Cc1nn(CC(=O)N2CCCCC2Cn2cccn2)c(C)c1Cl (stereo not drawn)
2. COCC(=O)NC1CC2(CCN(CCO)CC2)c2ccccc21 (stereo not drawn)
3. CC(C)NC(=O)NCCCOC1CCOCC1
4. CC(C)c1ccc(CCC(=O)N2CCOCC2c2ncon2)cc1 (stereo not drawn)
5. Cc1nc(CN2CC[C@H]3[C@H]2CCN3c2ncccn2)cs1
6. Cc1noc(C)c1CN1CCO[C@H]2[C@H](Oc3ccccn3)CC[C@@H]21

[-0.411, 8.06, -4.28, -5.22, -5.71, -0.309]
